molecular target: Bcr-Abl (Homo sapiens, UniProt P00519); construct: the other entry of the earlier key: BCR (P11274, Breakpoint cluster region protein); assay: Test for activity against Bcr-Abl (phosphorylation ELISA in 32D-bcr/abl cells); conditions: 32D cells transfected with p210 Bcr-Abl; ELISA of Bcr-Abl phosphorylation; read-out: bcrabl32DcEL/ Average<32Dp210IC50 [umol l−1]>
Sequence (P00519 28-1130 limits assumed): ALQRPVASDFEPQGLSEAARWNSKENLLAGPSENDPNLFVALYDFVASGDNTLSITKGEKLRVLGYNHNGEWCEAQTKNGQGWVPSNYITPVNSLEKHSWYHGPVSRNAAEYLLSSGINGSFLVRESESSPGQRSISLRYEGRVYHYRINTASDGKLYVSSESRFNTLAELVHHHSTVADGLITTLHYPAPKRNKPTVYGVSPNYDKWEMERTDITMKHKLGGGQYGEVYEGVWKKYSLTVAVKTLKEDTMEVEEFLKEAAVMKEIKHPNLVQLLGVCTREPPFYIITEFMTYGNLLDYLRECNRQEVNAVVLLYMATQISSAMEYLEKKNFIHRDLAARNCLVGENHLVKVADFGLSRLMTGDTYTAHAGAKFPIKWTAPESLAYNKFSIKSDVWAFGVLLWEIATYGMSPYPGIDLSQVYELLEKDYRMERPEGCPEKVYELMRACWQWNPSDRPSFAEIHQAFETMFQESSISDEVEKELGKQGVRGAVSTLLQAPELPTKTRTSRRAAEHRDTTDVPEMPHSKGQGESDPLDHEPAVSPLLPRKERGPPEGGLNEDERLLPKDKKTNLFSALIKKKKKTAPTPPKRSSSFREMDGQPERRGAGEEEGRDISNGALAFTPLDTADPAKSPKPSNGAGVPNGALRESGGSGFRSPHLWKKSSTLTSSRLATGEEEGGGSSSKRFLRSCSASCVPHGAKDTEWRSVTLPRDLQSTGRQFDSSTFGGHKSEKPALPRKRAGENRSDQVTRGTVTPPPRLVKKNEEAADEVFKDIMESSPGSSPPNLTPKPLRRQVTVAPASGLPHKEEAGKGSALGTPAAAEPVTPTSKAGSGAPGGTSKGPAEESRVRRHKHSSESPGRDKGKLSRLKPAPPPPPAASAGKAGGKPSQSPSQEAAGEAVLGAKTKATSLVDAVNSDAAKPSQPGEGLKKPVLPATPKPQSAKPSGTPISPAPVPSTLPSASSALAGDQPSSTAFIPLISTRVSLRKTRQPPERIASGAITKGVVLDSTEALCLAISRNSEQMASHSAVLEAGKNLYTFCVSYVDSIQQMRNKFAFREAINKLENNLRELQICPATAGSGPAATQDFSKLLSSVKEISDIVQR
pIC50: −log10 of the molar value.
READOUT KIND: pIC50

CN1CCN(Cc2ccc(-c3cc4c(N(C)C)ncnc4[nH]3)cc2)CC1; 6.14
CN(C)c1ncnc2[nH]c(-c3ccc(C(=O)NCCCN4CCOCC4)cc3)cc12; 6.04
